System: LOX IMVI melanoma
assay-name: NCI-60 one-dose screen, 48 h (100 = growth as untreated, 0 = no growth, -100 = all killed)
stated-conditions: 10 µM unless noted
The panel holds about 83,000 compounds, 20% with a hit somewhere; the sample as a whole holds those more often.
Below: a set of entries, each annotated with reported growth.
assay-metric: growth (%)

• O=C(Cn1c(=O)sc2ccccc21)NNS(=O)(=O)c1ccccc1[N+](=O)[O-] = 96.4
• CCc1ccc(C(=O)/C=C/C23c4ccccc4C(c4ccccc42)C2C(=O)NC(=O)C23)cc1 (centres undefined) = -68.7
• CC(C)c1ccc(COCc2cc(CN3CCCC3)c(O)c3ncccc23)cc1 = -33
• O=[N+]([O-])c1ccc(-c2nc(N3CCOCC3)c3c4c(sc3n2)CCCC4)cc1 = 86

====

Test system: NCI/ADR-RES ovarian
assay-name: NCI-60 one-dose screen, 48 h
stated-conditions: 10 µM unless noted
Compounds without any hit were thinned out: in the full panel of roughly 83,000, 20% have a hit. Active and inactive are the calls of the source. The calls were made as follows: active = growth percent below 10; inactive = the rest.
Labels: 1 (yes) (active), 0 (no) (inactive)

* C=C1C(=O)O[C@H]2[C@H]1CC/C(COC(=O)CSCCSCC(=O)OC/C1=C/CC[C@@]3(C)O[C@H]3[C@H]3OC(=O)C(=C)[C@@H]3CC1)=C\CC[C@@]1(C)O[C@@H]21 | 0 (no)
* O=C1/C(=C/c2cccs2)SC(=S)N1CCCN1CCOCC1 | 0 (no)
* COc1ccc(-c2nn(-c3ccccc3)cc2/C=C2/SC(=S)N(C)C2=O)cc1 | 0 (no)
* COc1ccc(C(=O)Nc2ncc(Cc3ccc(F)cc3)s2)cc1 | 1 (yes)
* CCOc1nc(-c2ccccc2)cc2c(O)c(C(=O)NN)[nH]c(=O)c12 | 0 (no)
* O=C1c2cccnc2C(=O)c2c1c(C(=O)NCCCN1CCCCC1)c1ccccn21 | 1 (yes)
* Nc1ncnc2c1N=C(c1ccc(Cl)cc1)CC(c1ccc3c(c1)OCO3)N2 (configuration not stated) | 0 (no)
* COc1cc(-c2cc(-c3cccs3)c(C#N)c(N3CCOCC3)n2)cc(OC)c1OC | 0 (no)
* c1ccc(CNc2c3ccccc3nc3ccccc23)cc1 | 0 (no)
* O=Cc1ccc([N+](=O)[O-])s1 | 0 (no)
* CC1Cc2c(Cl)ncnc2N(C)c2ccc(F)cc21 (configuration not stated) | 0 (no)
* O=C1Nc2ccccc2/C1=C\c1nc(-c2ccccc2F)n2ccccc12 | 1 (yes)
* CCOC(=O)Cn1c(O)c(N=Nc2ccc(S(N)(=O)=O)cc2)c2cc(Br)ccc21 | 0 (no)
* O=C(/C=C(/C=C/c1cccc2[nH]ccc12)OB(F)F)/C=C/c1cccc2[nH]ccc12 | 1 (yes)
* O=C1CNC(c2ccccc2)C(c2ccccc2)N1 (configuration not stated) | 0 (no)
* COc1ccc(OC)c(-c2c(C#N)c(-c3cccs3)nc3c2c(-c2ccccc2)nn3-c2ccccc2)c1 | 0 (no)
* CC(C)(C)n1cc(-c2ccnc(NCCCNS(=O)(=O)c3ccc(F)cc3)c2)c(-c2cccc(F)c2)n1 | 0 (no)

====

System: MOLT-4 leukemia
assay-name: NCI-60 one-dose screen, 48 h
stated-conditions: 10 µM unless noted
About 83,000 compounds went through this panel and 20% of them were active in at least one assay; those are over-represented in the sample as a whole. The source made the active and inactive calls. How the source made its calls: active means growth percent below 10; inactive means the rest.
Labels: active, inactive

- CC[C@@H](C(=O)[C@@H](C)[C@@H](O)[C@H](C)[C@@H]1O[C@@H]([C@@H](CC)C(=O)NCCc2ccc(F)cc2)CC[C@@H]1C)C1O[C@]2(C=CC(=O)[C@]3(CC[C@@](C)([C@H]4CC[C@](O)(CC)[C@H](C)O4)O3)O2)[C@H](C)C[C@@H]1C (stereo partly drawn): inactive
- CS(=O)(=O)Nc1cc(-c2ccc3ncnc(Nc4c(Cl)ccc5c4OCO5)c3c2)cnc1Cl: active
- C#CCOc1ccc2ncnc(Nc3ccc(NC(=O)CCl)cc3)c2c1: active
- CC(C)NC1CCC(Nc2ccnc3cc(Cl)ccc23)CC1 (stereo not drawn): inactive
- COc1cccc([C@H]2c3[nH]c4ccccc4c3C[C@H]3C(=O)N(CCCCCCC(=O)NO)CC(=O)N23)c1: inactive
- O=C1c2cccc3cccc(c23)C(=O)N1N1C(=O)c2cccc3c(N4CCOCC4)ccc(c23)C1=O: inactive
- COc1cnc2c(c1)C(=O)c1c-2n(CCCNCCO)c(=O)c2ccncc12: active
- CCNC(=O)c1[nH]cc(-c2ccccc2)c1-c1cc(OC)c2c(c1OC)OCO2: inactive

# credit: PubChem BioAssay (NCI)
